# Test system: Escherichia coli
# procedure-text: MIC/MBC by broth dilution, pure ILs
# Type: cell-based
# measurement-conditions: 24 h, 10^6 CFU/mL
Here, each record is paired with measured MBC data.
Answer format: value, then unit.

Please review the entries below; each comes with its answer.
                        structure_as_smiles  measured_attribute  recorded_measurement
0  CCCCCCCCCCCCCCCCCC[n+]1ccn(C)c1.COC(=O)c1cc(C(=O)OC)cc(S(=O)(=O)[O-])c1                 MBC          608.83 µg/mL
1  CCCCCCCCCC[n+]1ccn(C)c1.COC(=O)c1cc(C(=O)OC)cc(S(=O)(=O)[O-])c1                 MBC          248.31 µg/mL
2  CCCCCCCCCCCCCCCC[n+]1ccn(C)c1.COC(=O)c1cc(C(=O)OC)cc(S(=O)(=O)[O-])c1                 MBC           72.60 µg/mL

Below: the item to evaluate.
Prompt: Using the record for `CCCCCCCCCCCCCC[n+]1ccn(C)c1.COC(=O)c1cc(C(=O)OC)cc(S(=O)(=O)[O-])c1` , state its measured MBC.
Completion: 27.64 µg/mL
